Ref: paper PMC4127593

Target: hDAAO (human D-amino acid oxidase) (Homo sapiens)
Sequence (P14920 whole entry): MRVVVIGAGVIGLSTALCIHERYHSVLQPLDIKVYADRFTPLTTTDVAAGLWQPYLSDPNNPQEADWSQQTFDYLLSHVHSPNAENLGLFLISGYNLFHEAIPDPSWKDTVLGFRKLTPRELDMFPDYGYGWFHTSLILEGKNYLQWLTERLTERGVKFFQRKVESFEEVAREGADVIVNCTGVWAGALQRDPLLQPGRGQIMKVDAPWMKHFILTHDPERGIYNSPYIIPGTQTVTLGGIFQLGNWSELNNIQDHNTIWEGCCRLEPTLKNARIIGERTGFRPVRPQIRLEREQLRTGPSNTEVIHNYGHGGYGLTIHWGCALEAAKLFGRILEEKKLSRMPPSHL
pIC50: −log10 of the molar value.

{"COMPOUND": "Nc1ncnc2c1ncn2[C@@H]1O[C@H](COP(=O)(O)OP(=O)(O)O)[C@@H](O)[C@H]1O [ADP, reference compound]", "STUDY TARGET": "hDAAO (human D-amino acid oxidase) (Homo sapiens)", "pIC50": 3.24}
{"COMPOUND": "O=C(O)CCc1cc2c(-c3ccccc3)cc(=O)oc2cc1O [Compound 2]", "STUDY TARGET": "hDAAO (human D-amino acid oxidase) (Homo sapiens)", "pIC50": 7.43}

* * *

Parameter IC50: see the listing below.
Target: hDAAO (Homo sapiens)
Sequence (P14920 whole entry): as above

{"SMI": "COc1ccc(CCc2cc(O)c(=O)[nH]n2)c(OC)c1", "STUDY TARGET": "hDAAO (Homo sapiens)", "READOUT UNIT": "nM", "IC50": 24}
{"SMI": "O=C(O)CCc1cc2c(-c3ccccc3)cc(=O)oc2cc1O", "STUDY TARGET": "hDAAO (Homo sapiens)", "READOUT UNIT": "nM", "IC50": 230}
